experiment: Singlet oxygen (1O2) production rate; type: physicochemical
Counter-ions that a name gives are not always drawn.
Quantity measured: Singlet Oxygen Production (slope) 1O2

Take a look at these entries with their results.
• C=Cc1c(C)c2cc3nc(c(C)c4cc(C)c(cc5nc(cc1[nH]2)C(C)=C5CC)[nH]4)[C@@H](CCC(=O)N(C)CCCO)[C@@H]3C [Compound 5] = 2385.0
• C=Cc1c(C)c2cc3nc(c(C)c4cc(C)c(cc5nc(cc1[nH]2)C(C)=C5CC)[nH]4)[C@@H](CCC(=O)NCCCS[C@@H]1O[C@H](CO)[C@@H](O)[C@H](O)[C@H]1O)[C@@H]3C [Compound 3] = 2054.0
• C=Cc1c(C)c2cc3nc(c(C)c4cc(C)c(cc5nc(cc1[nH]2)C(C)=C5CC)[nH]4)[C@@H](CCC(=O)N[C@H]1C(O)O[C@H](CO)[C@@H](O)[C@@H]1O)[C@@H]3C (stereo partly shown) [Compound 13] = 1423.0
• C=Cc1c(C)c2cc3nc(c(C)c4cc(C)c(cc5nc(cc1[nH]2)C(C)=C5CC)[nH]4)[C@@H](CCC(=O)N(C)CCOCCOCCO)[C@@H]3C [Compound 4] = 2191.0
• C=Cc1c(C)c2cc3nc(c(CC(=O)N[C@@H](CC(=O)O)C(=O)O)c4[nH]c(cc5nc(cc1[nH]2)C(C)=C5CC)c(C)c4C(=O)O)[C@@H](CCC(=O)O)[C@@H]3C [Talaporfin sodium, mono-L-aspartyl chlorin e6, reference compound] = 736.7
• C=Cc1c(C)c2cc3nc(c(C)c4cc(C)c(cc5nc(cc1[nH]2)C(C)=C5CC)[nH]4)[C@@H](CCC(=O)NCCOCCO[C@@H]1O[C@H](CO)[C@@H](O)[C@H](O)[C@H]1O)[C@@H]3C [Compound 20] = 1210.0
• C=Cc1c(C)c2cc3nc(c(C)c4cc(C)c(cc5nc(cc1[nH]2)C(C)=C5CC)[nH]4)[C@@H](CCC(=O)O)[C@@H]3C [Compound 1d, phyllochlorin arginine salt] = 833.9

[P] C=Cc1c(C)c2cc3nc(c(C)c4cc(C)c(cc5nc(cc1[nH]2)C(C)=C5CC)[nH]4)[C@@H](CCC(=O)OC)[C@@H]3C [Compound 2, phyllochlorin methyl ester]
[Q] C=Cc1c(C)c2cc3nc(c(C)c4cc(C)c(cc5nc(cc1[nH]2)C(C)=C5CC)[nH]4)[C@@H](CCC(=O)N(C)CCCS[C@H]1O[C@H](CO)[C@@H](O)[C@H](O)[C@@H]1O)[C@@H]3C [Compound 16]
[R] C=Cc1c(C)c2cc3nc(c(C)c4cc(C)c(cc5nc(cc1[nH]2)C(C)=C5CC)[nH]4)[C@@H](CCC(=O)N(C)CCOCCO[C@@H]1O[C@H](CO)[C@@H](O)[C@H](O)[C@H]1O)[C@@H]3C [Compound 14]
stdin: Rank items: key Singlet Oxygen Production (slope) 1O2, increasing. Give the labels in the order requested.
stdout: Q, R, P
(Q: 884.1, R: 1293.0, P: 2141.0)

* * *

system: SKOV3 ovarian cancer cells; test: Inherent cytotoxicity (dark toxicity) in SKOV3 cells (AlamarBlue viability); format: cell-based, Human; conditions: human, 24 h
Where a name gives a salt, the structure may show the parent alone.
Quantity measured: Cellular Toxicity: Dark toxicity IC10 (µM)
The answer is to be given in µM; state only the numeric part.

Take a look at these entries with their results.
- C=Cc1c(C)c2cc3nc(c(C)c4cc(C)c(cc5nc(cc1[nH]2)C(C)=C5CC)[nH]4)[C@@H](CCC(=O)O)[C@@H]3C [Compound 1, phyllochlorin sodium salt]: 21.96
- C=Cc1c(C)c2cc3nc(c(C)c4cc(C)c(cc5nc(cc1[nH]2)C(C)=C5CC)[nH]4)[C@@H](CCC(=O)N(C)CCO)[C@@H]3C: 14.94

stdin: Check the records and state Cellular Toxicity: Dark toxicity IC10 for "C=Cc1c(C)c2cc3nc(c(C)c4cc(C)c(cc5nc(cc1[nH]2)C(C)=C5CC)[nH]4)[C@@H](CCC(=O)N(C)CCCS[C@@H]1O[C@H](CO)[C@@H](O)[C@H](O)[C@H]1O)[C@@H]3C"
stdout: 9.49

stdin: Check the records and state Cellular Toxicity: Dark toxicity IC10 for C=Cc1c(C)c2cc3nc(c(C)c4cc(C)c(cc5nc(cc1[nH]2)C(C)=C5CC)[nH]4)[C@@H](CCC(=O)O)[C@@H]3C [Compound 1e, phyllochlorin meglumine salt]
stdout: 20.73

stdin: Check the records and state Cellular Toxicity: Dark toxicity IC10 for "C=Cc1c(C)c2cc3nc(c(C)c4cc(C)c(cc5nc(cc1[nH]2)C(C)=C5CC)[nH]4)[C@@H](CCC(=O)NCCOCCO[C@@H]1O[C@H](CO)[C@@H](O)[C@H](O)[C@H]1O)[C@@H]3C"
stdout: 46.23

* * *

tested on: SKOV3 ovarian cancer cells; experiment: Inherent cytotoxicity (dark toxicity) in SKOV3 cells (AlamarBlue viability); assay type: cell-based, Human; conditions: human, 24 h
Where a name gives a salt, the structure may show the parent alone.
Reported Cellular Toxicity: Dark toxicity IC10 by item:
The answer is to be given in µM; state only the numeric part.

Take a look at these entries with their results.
* C=Cc1c(C)c2cc3nc(c(C)c4cc(C)c(cc5nc(cc1[nH]2)C(C)=C5CC)[nH]4)[C@@H](CCC(=O)N(C)CCOCCOCCO)[C@@H]3C | 16.41
* C=Cc1c(C)c2cc3nc(c(C)c4cc(C)c(cc5nc(cc1[nH]2)C(C)=C5CC)[nH]4)[C@@H](CCC(=O)N(C)CCOCCO[C@@H]1O[C@H](CO)[C@@H](O)[C@H](O)[C@H]1O)[C@@H]3C | 22.79
* C=Cc1c(C)c2cc3nc(c(C)c4cc(C)c(cc5nc(cc1[nH]2)C(C)=C5CC)[nH]4)[C@@H](CCC(=O)N(C)CCCO[C@@H]1O[C@H](CO)[C@@H](O)[C@H](O)[C@H]1O)[C@@H]3C | 14.60
* C=Cc1c(C)c2cc3nc(c(C)c4cc(C)c(cc5nc(cc1[nH]2)C(C)=C5CC)[nH]4)[C@@H](CCC(=O)O)[C@@H]3C [Compound 1d, phyllochlorin arginine salt] | 18.15
* C=Cc1c(C)c2cc3nc(c(C)c4cc(C)c(cc5nc(cc1[nH]2)C(C)=C5CC)[nH]4)[C@@H](CCC(=O)N(C)CCCCCO)[C@@H]3C | 14.27
* C=Cc1c(C)c2cc3nc(c(C)c4cc(C)c(cc5nc(cc1[nH]2)C(C)=C5CC)[nH]4)[C@@H](CCC(=O)N(C)CCCS[C@@H]1O[C@H](COC(C)=O)[C@@H](OC(C)=O)[C@H](OC(C)=O)[C@H]1OC(C)=O)[C@@H]3C | 29.00
* C=Cc1c(C)c2cc3nc(c(C)c4cc(C)c(cc5nc(cc1[nH]2)C(C)=C5CC)[nH]4)[C@@H](CCC(=O)NCCCS[C@@H]1O[C@H](CO)[C@@H](O)[C@H](O)[C@H]1O)[C@@H]3C | 20.66
* C=Cc1c(C)c2cc3nc(c(C)c4cc(C)c(cc5nc(cc1[nH]2)C(C)=C5CC)[nH]4)[C@@H](CCC(=O)OC)[C@@H]3C | 39.62

stdin: Check the records and state Cellular Toxicity: Dark toxicity IC10 for C=Cc1c(C)c2cc3nc(c(C)c4cc(C)c(cc5nc(cc1[nH]2)C(C)=C5CC)[nH]4)[C@@H](CCC(=O)N(C)CCC[S+]([O-])[C@@H]1O[C@H](CO)[C@@H](O)[C@H](O)[C@H]1O)[C@@H]3C (some centres unmarked)
stdout: 70.24

stdin: Check the records and state Cellular Toxicity: Dark toxicity IC10 for C=Cc1c(C)c2cc3nc(c(CC(=O)N[C@@H](CC(=O)O)C(=O)O)c4[nH]c(cc5nc(cc1[nH]2)C(C)=C5CC)c(C)c4C(=O)O)[C@@H](CCC(=O)O)[C@@H]3C [Talaporfin sodium, mono-L-aspartyl chlorin e6, reference compound]
stdout: 11.10

stdin: Check the records and state Cellular Toxicity: Dark toxicity IC10 for C=Cc1c(C)c2cc3nc(c(C)c4cc(C)c(cc5nc(cc1[nH]2)C(C)=C5CC)[nH]4)[C@@H](CCC(=O)N[C@H]1C(O)O[C@H](CO)[C@@H](O)[C@@H]1O)[C@@H]3C (some centres unmarked)
stdout: 13.02

stdin: Check the records and state Cellular Toxicity: Dark toxicity IC10 for "C=Cc1c(C)c2cc3nc(c(C)c4cc(C)c(cc5nc(cc1[nH]2)C(C)=C5CC)[nH]4)[C@@H](CCC(=O)N(C)CCCS[C@@H]1O[C@H](CO)[C@@H](O)[C@H](O)[C@@H]1O)[C@@H]3C"
stdout: 76.27

stdin: Check the records and state Cellular Toxicity: Dark toxicity IC10 for "C=Cc1c(C)c2cc3nc(c(C)c4cc(C)c(cc5nc(cc1[nH]2)C(C)=C5CC)[nH]4)[C@@H](CCC(=O)N(C)CCCO)[C@@H]3C"
stdout: 20.82

stdin: Check the records and state Cellular Toxicity: Dark toxicity IC10 for C=Cc1c(C)c2cc3nc(c(C)c4cc(C)c(cc5nc(cc1[nH]2)C(C)=C5CC)[nH]4)[C@@H](CCC(=O)N(C)CCCS[C@@H]1O[C@H](COC(=O)[C@@H](N)C(C)C)[C@@H](O)[C@H](O)[C@H]1O)[C@@H]3C [Compound 12, hydrochloride]
stdout: 28.36
